Could you please report measured % Binding for the items listed next?
# target_or_test_system: EphB6 (receptor of Table 1)
# measurement_description: EphB receptor specificity panel (% binding)
One number for each entry, in %.

Reference set, count: 3
- binder: "WHRYPDPRMLPT (Panned on EphB2) [WHRYPDPRMLPT peptide (SEQ ID NO:7)]"
  readout_type: "% Binding"
  units: "%"
  numeric_readout: 15
- binder: "TYFDFQAWSIRA (Panned on EphB4) [TYFDFQAWSIRA peptide (SEQ ID NO:22)]"
  readout_type: "% Binding"
  units: "%"
  numeric_readout: 30
- binder: "WGIPRAAQVMWT (Panned on EphB4) [WGIPRAAQVMWT peptide (SEQ ID NO:33)]"
  readout_type: "% Binding"
  units: "%"
  numeric_readout: 14

Consider the record given below.
Kindly note the recorded % Binding for DHWRILPFSLSS (Panned on EphB2) [DHWRILPFSLSS peptide (SEQ ID NO:10)] , which is 3
